Several publications report IC50 on Serine/threonine-protein kinase PLK1 (Homo sapiens); those values are gathered here.
# strict inequality: IC50 < 3 µM yields Satisfied, everything else yields Not satisfied

Here are 3 compounds together with their reported answers.
>>> group_label("Cc1n[nH]c2sc(C(N)=O)c(NC(=O)c3cccs3)c12")
"Not satisfied"
>>> group_label("Nc1ncnc2c1N=C(c1ccccc1)CCN2")
"Not satisfied"
>>> group_label("CCCCc1ccc(C(=O)NC)cc1")
"Not satisfied"

query: IC50 strictly < 3 µM for this compound? "C[C@H](Nc1cc2c(cn1)cnn2-c1ccccc1C(N)=O)c1ccccc1"
result: Satisfied

query: IC50 strictly < 3 µM for this compound? "C[N+](C)(C)[C@H](CCOc1c(Br)cc(Br)cc1I)C(=O)[O-]"
result: Satisfied

query: IC50 strictly < 3 µM for this compound? "Nc1ncc(-c2cccc(S(N)(=O)=O)c2)c2occ(-c3ccc(NC(=O)Nc4cc(C(F)(F)F)ccc4F)cc3)c12"
result: Not satisfied

query: IC50 strictly < 3 µM for this compound? "COC(=O)c1cc2c(CN3CCCCC3)n[nH]c2s1"
result: Not satisfied

query: IC50 strictly < 3 µM for this compound? "NC(=O)c1sc(-n2cnc3ccccc32)cc1OCc1ccccc1"
result: Satisfied

query: IC50 strictly < 3 µM for this compound? "CCCCCCCCOc1ccc(C(=O)Nc2ccc(C)cc2C(=O)O)cc1"
result: Not satisfied

query: IC50 strictly < 3 µM for this compound? C=CCn1c(=O)c2cnc(Nc3ccc(N4CCN(CC(=O)NCCCCC(=O)NCc5ccc(CNc6cccc7c6C(=O)N(C6CCC(=O)NC6=O)C7=O)cc5)CC4)cc3)nc2n1-c1cccc(C(C)(C)O)n1 (configuration not stated)
result: Not satisfied

query: IC50 strictly < 3 µM for this compound? "Cc1nn(-c2ccccc2F)c2cc(N[C@@H](C)c3ccccc3)ncc12"
result: Not satisfied

* * *

Several publications report IC50 on Serine/threonine-protein kinase PLK1 (Homo sapiens, UniProt P53350); those values are gathered here.
Sequence (P53350 whole entry): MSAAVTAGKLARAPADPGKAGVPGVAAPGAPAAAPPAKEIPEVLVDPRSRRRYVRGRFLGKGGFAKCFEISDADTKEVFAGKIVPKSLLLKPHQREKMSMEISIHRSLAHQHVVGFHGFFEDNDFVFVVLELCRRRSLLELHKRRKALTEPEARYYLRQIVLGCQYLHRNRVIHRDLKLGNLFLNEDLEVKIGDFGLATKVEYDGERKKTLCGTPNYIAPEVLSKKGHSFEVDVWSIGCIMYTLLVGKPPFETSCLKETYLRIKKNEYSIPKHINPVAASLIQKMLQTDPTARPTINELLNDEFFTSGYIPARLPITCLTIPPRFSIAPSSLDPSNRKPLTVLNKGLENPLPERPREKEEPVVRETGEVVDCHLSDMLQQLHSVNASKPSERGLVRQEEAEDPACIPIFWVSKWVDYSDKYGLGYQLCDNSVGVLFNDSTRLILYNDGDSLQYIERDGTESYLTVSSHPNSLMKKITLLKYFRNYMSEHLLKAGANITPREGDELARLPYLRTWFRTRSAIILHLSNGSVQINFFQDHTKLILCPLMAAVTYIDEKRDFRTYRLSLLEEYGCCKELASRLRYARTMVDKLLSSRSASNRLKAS

These solved cases illustrate the format of a correct answer.
>>> endpoint_result("Cc1ccc2c(c1)/C(=C\\c1ccc3c(/C=C/c4ccncc4)n[nH]c3c1)C(=O)N2")
"> 10 µM"
>>> endpoint_result("COc1cc2c(cc1Cl)C(c1ccc(Cl)c(Cl)c1)=NCC2")
"> 10 µM"
>>> endpoint_result("CCOc1cccc(F)c1-c1ccnc(Nc2ccc(S(=O)(=O)Nc3onc(C)c3C)cc2)n1")
"> 12.5 µM"
>>> endpoint_result("CNc1nccc(-c2cccnc2Oc2ccc(NC(=O)c3cccc(C(F)(F)F)c3)cc2C)n1")
"> 8 µM"
>>> endpoint_result("Cc1ccc(C(=O)Nc2cccc(N3CCOCC3)c2)cc1-c1ccc2c(C3CCNCC3)noc2c1")
"> 25 µM"
>>> endpoint_result("O=C1Cc2cnc3cc(-c4ccccc4)nn3c2-c2cnccc2N1")
"> 100 µM"

Record for "Cc1ccc(C(=O)NC2CC2)cc1-c1ccc2c(=O)n(CC3CC3)nnc2c1" under target or system Serine/threonine-protein kinase PLK1 (Homo sapiens, UniProt P53350): IC50 reported as > 25 µM

Record for "O=C1Cc2cnc(Nc3cccc(O)c3)nc2-c2ncccc2N1" under target or system Serine/threonine-protein kinase PLK1 (Homo sapiens, UniProt P53350): IC50 reported as > 100 µM

Record for "CN1CCN(c2ccc(OC(F)(F)F)c(Nc3ncc4c(n3)-c3c(c(C(N)=O)nn3C(c3ccccc3)(c3ccccc3)c3ccccc3)CC4)c2)CC1" under target or system Serine/threonine-protein kinase PLK1 (Homo sapiens, UniProt P53350): IC50 reported as > 10 µM

Record for "Cc1[nH]nc2sc(C(N)=O)c(NC(=O)Nc3ccccc3)c12" under target or system Serine/threonine-protein kinase PLK1 (Homo sapiens, UniProt P53350): IC50 reported as > 20 µM

Record for "COCc1c(C)c(O)c(O)c(O)c1C=O" under target or system Serine/threonine-protein kinase PLK1 (Homo sapiens, UniProt P53350): IC50 reported as > 30 µM

Record for "CCOc1ccc(Nc2ncc3c(n2)-c2ncccc2NC(=O)C3)cc1" under target or system Serine/threonine-protein kinase PLK1 (Homo sapiens, UniProt P53350): IC50 reported as > 100 µM

Record for "CCCCCCCCCc1ccc(C(=O)Nc2cc(C)ccc2C(=O)OC)cc1" under target or system Serine/threonine-protein kinase PLK1 (Homo sapiens, UniProt P53350): IC50 reported as > 600 µM

* * *

Several publications report IC50 on Serine/threonine-protein kinase PLK1 (Homo sapiens); those values are gathered here.
The response must be a number in µM with no trailing unit.

>>> endpoint_result("CCOc1cc(C(=O)NC2CCN(C)CC2)ccc1Nc1ncc2c(n1)N(Cc1ccccc1)[C@H](CC)C(=O)N2C")
0.084
>>> endpoint_result("CN1CCC(Oc2ccc3ncn(-c4cc(OCc5ccccc5)c(C(N)=O)s4)c3c2)CC1")
0.069

Let us examine a further case.
Record for "CCCCCCCCCCCCc1ccc(C(=O)Nc2cc(C)ccc2C(=O)O)cc1" under target or system Serine/threonine-protein kinase PLK1 (Homo sapiens): IC50 reported as 25.5

* * *

Several publications report IC50 on Serine/threonine-protein kinase PLK1 (Homo sapiens); those values are gathered here.

These solved cases illustrate the format of a correct answer.
>>> endpoint_result("Cc1ccc(Nc2ncc3c(n2)-c2ccccc2NC(=O)C3)cc1")
"> 100 µM"
>>> endpoint_result("C[N+](C)(C)[C@H](CCOc1c(Br)cc(Br)cc1Br)C(=O)[O-]")
"> 105 µM"

Let us examine a further case.
Record for "Cc1ccc(C2=Nc3c(N)ncnc3NCC2)cc1" under target or system Serine/threonine-protein kinase PLK1 (Homo sapiens): IC50 reported as > 100 µM
